- Tested on: BRD4 (BD1+BD2) bromodomain (Homo sapiens (Human))
- Protocol details: BRD4 binding inhibition (AlphaScreen, GST-BRD4 vs tetraacetylated histone H4 peptide)
- Condition info: GST-BRD4 (BD1+BD2) vs biotinylated acetyl-histone H4 peptide, AlphaScreen; read-out: BRD4 IC50
- Experimental: A mixture comprising 100 nM GST-BRD4 (BD1+BD2) and 100 nM biotinylated acetyl-histone H4 (Lys5,8,12,16) peptide was prepared in assay buffer (50 mM HEPES pH 7.4; 25 mM NaCl; 0.05% Tween 20; 0.1% bovine serum albumin (BSA); 10 mM dithiothreitol (DTT)). […] Then, the signals were measured with PerkinElmer Envision HTS Multilabel Reader using an alpha screen protocol of PerkinElmer. […]
Observed property: pIC50
Give bare numbers, as −log10 of the molar value.

Here are 5 compounds. What values of pIC50 were reported for them?
1. CCOC(=O)CC(=O)NCCCCNc1nc2cc(OC)ccc2n2c(C)nnc12 [Example 305]
2. Cc1nnc2c(NCCCCNC(=O)c3ccccc3Cl)nc3cc(OCCN4CCOCC4)ccc3n12 [Example 439]
3. CCOc1ccc2c(c1)nc(NCCCCNC(=O)OC(C)C)c1nnc(C)n12 [Example 443]
4. Cc1nnc2c(NCCCCNC(=O)CC(C)C)nc3cc(OCC4CCCCO4)ccc3n12 (centres unmarked) [Example 343]
5. COCCOc1ccc2c(c1)nc(NCCCCNC(=O)OCc1ccccc1)c1nnc(C)n12 [Example 373]

1: 7.39; 2: 7.42; 3: 7.89; 4: 7.44; 5: 7.70

Batch: pIC50 for all items listed.
1. COc1c(C)ccc2c1nc(NCCCCNC(=O)c1ccccc1)c1nnc(C)n12 [Example 138]
2. COc1cc2nc(NCCCCNC(=O)OC(C)C)c3nnc(C)n3c2cc1C [Example 467]
3. COc1cc2c(cc1C)nc(NCCCCNC(=O)OCC(C)C)c1nnc(C)n12 [Example 150]

[7.29, 7.64, 7.32]

* * *

- System: thymus cancer cells (Ty-82 cells)
- Protocol details: Cytotoxicity to thymus cancer cells (Ty-82 cells), WST-1
- Condition info: Homo sapiens, TY82, 72 h, read-out: Ty-82 Cytotoxicity IC50
Lab note - cut at 600 nM for IC50: 1 if strictly below, 0 if not.

COc1c(C)ccc2c1nc(NCCCCNC(=O)CC(C)C)c1nnc(C)n12; 0
Cc1nnc2c(NCCCCNC(=O)OC3CCCC3)nc3cc4c(cc3n12)OCCO4; 0
COc1cc2nc(NCCCCNC(=O)c3cccc(Cl)c3Cl)c3nnc(C)n3c2cc1OC; 0

For this compound, is IC50 lower than 600 nM? `COc1cc2nc(NCCCCNC(=O)OC(C)(C)C)c3nnc(C)n3c2cc1OC` 0

Please let me know if `COc1cc2nc(NCCCCNC(=O)NC3CCCCC3)c3nnc(C)n3c2cc1OC` shows IC50 below 600 nM. 1

Please determine if `Cc1nnc2c(NCCCCNC(=O)C(C)(C)C)nc3ccccc3n12` is below 600 nM in terms of IC50. 0

Is the reported IC50 for `COc1cc2nc(NCCCCNC(=O)OCC(C)C)c3nnc(C)n3c2cc1OC` strictly below 600 nM? 1

Check if IC50 falls below 600 nM for `COc1cc2nc(NCCCCNC(=O)NC(C)C)c3nnc(C)n3c2cc1OC` . 1

IC50 under 600 nM? Item: `Cc1nnc2c(NCCCCNC(=O)OC(C)C)nc3ccccc3n12` 0

For this compound, is IC50 lower than 600 nM? `COc1cc2nc(NCCCCNC(=O)OC(C)(C)C)c3nnc(C)n3c2cc1C` 0
